All figures here come from ChEMBL document CHEMBL1961873.

ASSAYED_TARGET: Tyrosine-protein kinase Lyn (Homo sapiens) (UniProt P07948);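 note: kinase tested as its LYN B splice variant, values given as mean percent inhibition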
Sequence (P07948 2-512 limits assumed): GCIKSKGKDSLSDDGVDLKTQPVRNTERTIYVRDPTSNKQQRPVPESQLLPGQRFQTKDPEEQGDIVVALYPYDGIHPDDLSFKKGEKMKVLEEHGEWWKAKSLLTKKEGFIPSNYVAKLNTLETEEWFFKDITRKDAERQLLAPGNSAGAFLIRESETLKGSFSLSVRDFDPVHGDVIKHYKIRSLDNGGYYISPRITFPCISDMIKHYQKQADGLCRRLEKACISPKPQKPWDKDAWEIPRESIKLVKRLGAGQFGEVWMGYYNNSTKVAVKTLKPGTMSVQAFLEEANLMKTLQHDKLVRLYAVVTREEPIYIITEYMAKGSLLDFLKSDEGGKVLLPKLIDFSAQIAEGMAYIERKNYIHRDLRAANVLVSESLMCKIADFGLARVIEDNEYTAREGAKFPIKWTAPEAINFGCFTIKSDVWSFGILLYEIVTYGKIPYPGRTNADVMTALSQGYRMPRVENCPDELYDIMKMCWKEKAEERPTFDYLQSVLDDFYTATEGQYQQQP
CONDITION_CONTEXT: at 1 µM
Description: GSK_PKIS: LYN B (splice variant) mean inhibition at 1 uM [Nanosyn]
Reported inhibition values for the following compounds.
Express the result in % but write the number alone.

NS(=O)(=O)c1cccc(-c2ccc3c(NC(=O)C4CC4)n[nH]c3c2)c1; 1.05
NS(=O)(=O)c1ccc(N/N=C2\C(=O)Nc3ccc(C(=O)NCCc4c[nH]cn4)cc32)cc1; 12.6
Cn1cc(C=C2C(=O)Nc3cccnc32)c2ccccc21; 36
CCn1c(-c2nonc2N)nc2cnc(Oc3cccc(NC(=O)c4ccc(OCCN5CCOCC5)cc4)c3)cc21; 2.62
Cc1ccc(C(=O)NC2CCCCC2)cc1-c1ccc(C(=O)NCC2CC2)cc1; 0.34

Kindly review the next compound as well.
Entry NCc1ccc(-c2nc(-c3ccc(Cl)c(O)c3)c(-c3ccncc3)[nH]2)cc1 : reported inhibition = ?
37.1

----------
ASSAYED_TARGET: cAMP-dependent protein kinase catalytic subunit PRKX (Homo sapiens) (UniProt P51817);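 note: values are mean percent inhibition of PRKX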
Sequence (P51817 whole entry): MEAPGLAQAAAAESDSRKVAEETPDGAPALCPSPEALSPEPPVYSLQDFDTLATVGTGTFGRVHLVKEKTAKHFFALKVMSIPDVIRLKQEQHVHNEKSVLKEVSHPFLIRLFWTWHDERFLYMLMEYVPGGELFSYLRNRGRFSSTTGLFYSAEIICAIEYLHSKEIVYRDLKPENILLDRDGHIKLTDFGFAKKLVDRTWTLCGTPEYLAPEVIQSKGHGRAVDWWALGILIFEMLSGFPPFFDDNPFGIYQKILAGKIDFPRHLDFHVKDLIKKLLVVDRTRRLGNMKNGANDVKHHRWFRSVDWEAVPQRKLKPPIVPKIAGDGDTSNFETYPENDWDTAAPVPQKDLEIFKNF
CONDITION_CONTEXT: at 0.1 µM
Reported inhibition values for the following compounds.
Express the result in % but write the number alone.

Examples from the recorded data:
COc1ccc(-c2coc3ncnc(N)c23)cc1; 1.76
CS(=O)(=O)CCNCc1ccc(-c2ccc3ncnc(Nc4ccc(OCc5ccccc5)c(Cl)c4)c3c2)o1; 0.78
CCn1c(-c2nonc2N)nc2c(N3CCCC3)nccc21; 0.17
Cn1cc(C=C2C(=O)Nc3cccnc32)c2ccccc21; 0.64
Nc1nc(-c2ccccn2)c(-c2ccc3ncccc3n2)s1; 1.03

Entry COc1cc2ncn(-c3cc(O[C@H](C)c4ccccc4Cl)c(C(N)=O)s3)c2cc1OC : reported inhibition = ?
2.91

Entry CC(C)=Cc1cccc2c1/C(=N/Nc1ccc(S(N)(=O)=O)cc1)C(=O)N2 : reported inhibition = ?
1.11

Entry N#Cc1c(NC(=O)c2cccc3ccccc23)sc2c1CCCC2 : reported inhibition = ?
2.34

Entry NC(=O)c1cccc(Nc2nccc(Nc3cccc4[nH]ncc34)n2)c1 : reported inhibition = ?
7.81

Entry COC(=O)Nc1nc2cc(Oc3ccc(NC(=O)Nc4cccc(C(=O)O)c4)cc3)ccc2[nH]1 : reported inhibition = ?
0.76

Entry O=C1NC(=O)C(N2CCc3ccccc32)=C1c1ccc(Cl)cc1 : reported inhibition = ?
1.91

Entry COc1cc2c(cc1Nc1nc(N3CCc4ccccc43)c3cc[nH]c3n1)N(C(=O)CN(C)C)CC2 : reported inhibition = ?
0.6

Entry CN1CCC(C(=O)Nc2n[nH]c3nnc(-c4ccccc4)cc23)CC1 : reported inhibition = ?
3.15

Entry COc1cc2ncn(-c3cc(OCc4ccccc4Cl)c(C(N)=O)s3)c2cc1OC : reported inhibition = ?
-0.05

Entry CC1=C(C(=O)Nc2ccc3[nH]ncc3c2)C(c2ccc(Cl)c(Cl)c2)CC(=O)N1 (configuration not stated) : reported inhibition = ?
14.8

Entry Cc1nn(C)c2cc(N(C)c3ccnc(Nc4cccc(S(N)(=O)=O)c4)n3)ccc12 : reported inhibition = ?
2.89

----------
ASSAYED_TARGET: Serine/threonine-protein kinase Sgk2 (Homo sapiens)
Sequence (whole entry): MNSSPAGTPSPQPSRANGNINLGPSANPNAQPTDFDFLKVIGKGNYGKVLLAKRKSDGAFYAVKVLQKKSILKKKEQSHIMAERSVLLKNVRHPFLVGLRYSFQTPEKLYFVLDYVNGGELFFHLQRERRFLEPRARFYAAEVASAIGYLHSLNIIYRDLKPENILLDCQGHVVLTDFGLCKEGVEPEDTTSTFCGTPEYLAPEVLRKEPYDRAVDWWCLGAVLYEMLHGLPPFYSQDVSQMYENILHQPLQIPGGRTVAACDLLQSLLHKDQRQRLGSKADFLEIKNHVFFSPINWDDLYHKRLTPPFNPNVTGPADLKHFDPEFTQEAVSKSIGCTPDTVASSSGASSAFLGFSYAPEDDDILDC
CONDITION_CONTEXT: at 1 µM
Description: GSK_PKIS: SGK2 mean inhibition at 1 uM [Nanosyn]
Reported inhibition values for the following molecules.
Express the result in % but write the number alone.

c1cnn2ncc(-c3ccnc(Nc4ccc5c(c4)OCCO5)n3)c2c1; 1.72
O=C1NC(=O)C(c2cccc(Cl)c2)=C1Nc1ccc(O)c(Cl)c1; 3.67
O=C1NC(=O)C(N2CCc3ccccc32)=C1c1ccc(Cl)cc1; 1.86
CN(C)c1cc2c(Nc3ccc4nc(Cc5ccccc5)[nH]c4c3)ncnc2cn1; 6.52
Fc1cccc(COc2ccc(Nc3ncnc4sc(-c5cccs5)cc34)cc2Cl)c1; 0.66
NS(=O)(=O)c1ccc(N/N=C2\C(=O)Nc3ccc(C(=O)NCCc4c[nH]cn4)cc32)cc1; 5.53

Entry CCc1cccc(NC(=O)Nc2ccc(Oc3ccc4nc(NC(=O)OC)[nH]c4c3)cc2)c1 : reported inhibition = ?
-0.81

Entry Cc1nn(C)c2cc(N(C)c3ccnc(Nc4cccc(S(N)(=O)=O)c4)n3)ccc12 : reported inhibition = ?
5.81

Entry CS(=O)(=O)CCNCc1nc(-c2ccc3ncnc(Nc4ccc(F)c(Cl)c4)c3c2)cs1 : reported inhibition = ?
-2.15

Entry CS(=O)(=O)CCNCc1ccc(-c2ccc3ncnc(Nc4ccc(OCc5ccccc5)c(Cl)c4)c3c2)o1 : reported inhibition = ?
0.46

Entry CC1=C(C(=O)Nc2ccc3[nH]ncc3c2)C(c2ccc3ccccc3c2)CC(=O)N1 (stereo unspecified) : reported inhibition = ?
16.6

Entry COc1cc2c(cc1Nc1nc(N3CCc4ccccc43)c3cc[nH]c3n1)N(C(=O)CN(C)C)CC2 : reported inhibition = ?
2.34

Entry CCn1c(-c2nonc2N)nc2cncc(C(=O)N3CC[C@H](N)C3)c21 : reported inhibition = ?
44.6

Entry O=C1NC(=O)C(c2ccccc2Cl)=C1Nc1cccc(O)c1 : reported inhibition = ?
1.41
